Values were extracted from patent US20250236608A1.

Study Target: pEGFR (Tyr1068) in PC-9 cells (Ex19Del) (Homo sapiens (Human), UniProt P00533, DEL746-750)
Sequence (P00533 other isoform, or with tags, fused parts or gaps del 746-750): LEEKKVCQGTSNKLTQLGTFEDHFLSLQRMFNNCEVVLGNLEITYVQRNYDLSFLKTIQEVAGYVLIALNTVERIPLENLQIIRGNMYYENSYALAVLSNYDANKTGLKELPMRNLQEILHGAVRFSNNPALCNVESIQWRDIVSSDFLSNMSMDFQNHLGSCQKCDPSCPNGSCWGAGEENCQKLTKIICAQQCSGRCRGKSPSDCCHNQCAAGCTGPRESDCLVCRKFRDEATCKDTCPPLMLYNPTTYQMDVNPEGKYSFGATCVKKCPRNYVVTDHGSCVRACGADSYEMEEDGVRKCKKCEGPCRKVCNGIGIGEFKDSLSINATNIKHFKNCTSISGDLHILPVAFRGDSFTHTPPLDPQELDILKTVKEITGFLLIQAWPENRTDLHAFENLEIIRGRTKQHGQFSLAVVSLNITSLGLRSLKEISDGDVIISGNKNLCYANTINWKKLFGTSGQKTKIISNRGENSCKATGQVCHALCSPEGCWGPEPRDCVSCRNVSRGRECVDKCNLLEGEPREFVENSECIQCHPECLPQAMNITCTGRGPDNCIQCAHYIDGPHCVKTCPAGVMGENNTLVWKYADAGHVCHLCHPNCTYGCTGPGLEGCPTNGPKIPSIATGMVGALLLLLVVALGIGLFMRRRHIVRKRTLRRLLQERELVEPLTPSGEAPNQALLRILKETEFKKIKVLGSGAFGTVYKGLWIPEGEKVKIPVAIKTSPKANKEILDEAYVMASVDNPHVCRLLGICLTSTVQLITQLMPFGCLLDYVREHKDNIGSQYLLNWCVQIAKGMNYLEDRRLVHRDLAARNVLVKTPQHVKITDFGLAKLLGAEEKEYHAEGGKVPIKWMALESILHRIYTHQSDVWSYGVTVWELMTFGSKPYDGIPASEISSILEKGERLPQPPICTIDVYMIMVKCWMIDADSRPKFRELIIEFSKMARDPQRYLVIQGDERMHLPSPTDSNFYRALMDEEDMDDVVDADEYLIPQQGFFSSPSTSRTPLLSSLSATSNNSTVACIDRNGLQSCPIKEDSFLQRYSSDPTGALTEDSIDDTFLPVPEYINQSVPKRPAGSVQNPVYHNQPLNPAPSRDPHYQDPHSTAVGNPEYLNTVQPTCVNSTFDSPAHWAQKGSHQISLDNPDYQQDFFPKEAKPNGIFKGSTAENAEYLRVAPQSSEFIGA
Test Name: PC-9 pEGFR AlphaLISA assay
Test Conditions: 4 hours incubation, p-EGFR (Tyr1068) AlphaLISA, read-out: Ext pEGFR_PC-9 Ex19Del IC50
Hi! Just check whether IC50 is below 4 nM. Below gives met, equal or above gives not met.

These solved cases illustrate the format of a correct answer.
COc1cc2ncnc(-c3cn(C)nc3-c3ccccc3)c2nc1NC(=O)c1ccccc1F [Example 359]: met
COc1cc2ncnc(-c3cn(C)nc3-c3ccccc3)c2cc1O[C@H]1CN(C)C[C@H]1F [Example 4]: not met
COc1cc2ncnc(-c3cn(C)nc3-c3ccccc3)c2cc1-c1cn(C)nc1C [Example 150]: met
COc1cc2ncnc(-c3cn(C)nc3-c3ccccc3)c2cc1NC(=O)c1ccnnc1 [Example 328]: not met
COc1cc2ncnc(-c3cn(C)nc3-c3ccccc3)c2cc1OC(=O)N1[C@H](C)CN(C)C[C@H]1C [Example 89]: not met
COc1cc2ncnc(-c3cn(C)nc3-c3ccccc3)c2nc1NC(=O)C1(C(F)F)CC1 [Example 369]: met
COc1cc2ncnc(-c3cn(C)nc3-c3ccc(F)cc3)c2nc1NC(=O)C1(C(F)(F)F)CC1 [Example 362]: met
COc1cc2ncnc(-c3cn(C)nc3-c3ccccc3)c2cc1NC(=O)[C@@H](C)F (single isomer, unassigned) [Example 245]: met
COc1cc2ncnc(-c3cn(C)nc3-c3ccc(F)cc3F)c2nc1NC(=O)[C@@]12C[C@@H]1CN(C)C2 (single isomer, unassigned) [Example 423]: met
COc1cc2ncnc(-c3cn(C)nc3-c3ccccc3)c2cc1OC(=O)N1CCOC(C)(C)C1 [Example 80]: not met

For CCOc1cc2ncnc(-c3cn(C)nc3-c3ccccc3)c2cc1OC [Example 25] , is the recorded IC50 below the cut-off of 4 nM?
met

Bench note: check whether COc1cc2ncnc(-c3cn(C)nc3-c3ccccc3)c2cc1O[C@H]1CN(C)C[C@@H]1F [Example 6] shows IC50 below 4 nM
met

Decide: IC50 of COc1cc2ncnc(-c3cn(CC(F)F)nc3-c3ccccc3)c2cc1NC(=O)c1ccc(C2CC2)nc1 [Example 333] strictly below 4 nM?
met

Hello, is IC50 of the following compound strictly smaller than 4 nM? COc1cc2ncnc(-c3cn(C)nc3-c3ccccc3)c2nc1NC(=O)[C@@]12COC[C@@H]1C2 (single isomer, unassigned) [Example 431]
met

I wonder whether COc1cc2ncnc(-c3cn(C)nc3-c3ccccc3)c2nc1NC(=O)c1cn(C(F)(F)F)nc1C [Example 428] has IC50 below 4 nM. Can you tell?
not met

---

Study Target: EGFR L858R (Homo sapiens (Human), UniProt P00533, L858R)
Sequence (P00533 25-1210 L858R): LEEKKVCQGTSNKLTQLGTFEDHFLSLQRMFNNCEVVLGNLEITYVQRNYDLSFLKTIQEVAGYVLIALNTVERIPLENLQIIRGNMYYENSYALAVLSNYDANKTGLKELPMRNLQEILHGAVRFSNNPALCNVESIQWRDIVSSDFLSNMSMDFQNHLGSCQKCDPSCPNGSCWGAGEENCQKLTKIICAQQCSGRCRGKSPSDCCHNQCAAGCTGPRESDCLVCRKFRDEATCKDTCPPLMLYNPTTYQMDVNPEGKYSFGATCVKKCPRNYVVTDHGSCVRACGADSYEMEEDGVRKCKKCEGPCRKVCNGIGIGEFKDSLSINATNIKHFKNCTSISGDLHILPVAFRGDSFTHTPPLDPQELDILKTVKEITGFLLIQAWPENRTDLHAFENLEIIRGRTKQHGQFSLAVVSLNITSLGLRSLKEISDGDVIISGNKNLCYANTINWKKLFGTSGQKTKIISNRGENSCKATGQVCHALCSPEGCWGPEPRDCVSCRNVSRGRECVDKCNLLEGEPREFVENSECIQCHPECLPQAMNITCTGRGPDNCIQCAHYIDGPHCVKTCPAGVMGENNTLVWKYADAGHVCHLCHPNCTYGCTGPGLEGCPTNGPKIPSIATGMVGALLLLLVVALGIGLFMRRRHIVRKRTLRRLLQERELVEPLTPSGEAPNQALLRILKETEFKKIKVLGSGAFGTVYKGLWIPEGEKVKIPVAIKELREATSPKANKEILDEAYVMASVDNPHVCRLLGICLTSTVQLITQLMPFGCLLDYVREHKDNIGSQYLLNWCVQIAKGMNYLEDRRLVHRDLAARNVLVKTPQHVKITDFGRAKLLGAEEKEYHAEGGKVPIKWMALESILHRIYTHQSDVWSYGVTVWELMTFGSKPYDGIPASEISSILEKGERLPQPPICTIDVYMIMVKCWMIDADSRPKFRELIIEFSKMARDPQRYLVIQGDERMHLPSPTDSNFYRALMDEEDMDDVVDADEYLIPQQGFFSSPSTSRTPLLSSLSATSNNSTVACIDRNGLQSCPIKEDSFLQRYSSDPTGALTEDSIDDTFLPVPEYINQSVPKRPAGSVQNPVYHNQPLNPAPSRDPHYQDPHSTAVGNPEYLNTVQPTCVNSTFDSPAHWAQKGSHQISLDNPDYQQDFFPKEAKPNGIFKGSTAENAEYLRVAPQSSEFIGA
Test Name: Biochemical EGFR inhibition assay, EGFR L858R
Test Conditions: Caliper mobility shift; 1.0 mM ATP or ATP Km; read-out: Enz EGFR_L858R IC50
Experimental: Reactions proceeded until between 10% to 20% total peptides were phosphorylated at room temperature (25° C.) and were terminated with 35 mM 2,2′,2″,2″-(ethane-1,2-diyldinitrilo)tetraacetic acid (EDTA). Product was detected using the Caliper mobility shift detection method where the phosphorylated peptide (product) and substrate were electrophoretically separated and measured. Percent activity was plotted against log concentration of compound and points to generate an apparent IC50.
Parameter: pIC50
Quick note: pIC50 means taking -log10 of the concentration in moles per liter.

COc1cc2ncnc(-c3cn(CC4CC4)nc3-c3ccccc3)c2nc1NC(=O)[C@]12C[C@H]1CN(C)C2 (single isomer, unassigned) [Example 409]: 9.00
COc1cc2ncnc(-c3cn(C)nc3-c3ccccc3)c2cc1OC(=O)N1[C@@H](C)CNC[C@@H]1C [Example 88]: 8.49
COc1cc2ncnc(-c3cn(C)nc3-c3ccccc3)c2nc1O[C@H](C)c1cnnn1C [Example 41]: 8.08

Fill: pIC50 (EGFR L858R (Homo sapiens (Human), UniProt P00533, L858R)) for this compound CCOc1cc2ncnc(-c3cn(C)nc3-c3ccccc3F)c2nc1NC(=O)[C@@]12C[C@@H]1CN(C)C2 (single isomer, unassigned) [Example 400]
6.85

Param request: pIC50 | system EGFR L858R (Homo sapiens (Human), UniProt P00533, L858R) | item C[C@@H](O)c1cc2c(-c3cn(CC(F)F)nc3-c3ccccc3)ncnc2cc1O[C@H]1CCOC1 (single isomer, unassigned) [Example 118]
8.41

Give pIC50; test system EGFR L858R (Homo sapiens (Human), UniProt P00533, L858R); compound CCC(=O)Nc1cc2c(-c3cn(C)nc3-c3ccccc3)ncnc2cc1OCC1COC1 [Example 277]
8.43

Specify the recorded pIC50 for COc1cc2ncnc(-c3cn(C)nc3-c3ccccc3)c2cc1NC(=O)c1cnn(C(F)(F)F)c1 [Example 187] , system: EGFR L858R (Homo sapiens (Human), UniProt P00533, L858R).
8.59

Give measured pIC50 for CCn1cc(-c2ncnc3cc(OC)c(NC(=O)[C@@]45COC[C@@H]4C5)cc23)c(-c2ccc(F)cc2)n1 [Example 334] (EGFR L858R (Homo sapiens (Human), UniProt P00533, L858R)).
8.62

State measured pIC50 of the compound COc1cc2ncnc(-c3cn(CC(F)(F)F)nc3-c3ccccc3)c2cc1OC(=O)N1CCN(C)C[C@@H]1C [Example 60] with EGFR L858R (Homo sapiens (Human), UniProt P00533, L858R).
8.29

# lookup: EGFR L858R (Homo sapiens (Human), UniProt P00533, L858R) pIC50, key = Cn1cc(-c2ncnc3cc(OC4CC4)c(NC(=O)C4(C(F)(F)F)CC4)nc23)c(-c2ccccc2)n1 [Example 463]
8.41

Provide pIC50, recorded with EGFR L858R (Homo sapiens (Human), UniProt P00533, L858R), of COc1cc2ncnc(-c3sc(C)nc3-c3ccccc3)c2cc1NC(=O)C1CC1 [Example 266]
8.82

Would you please give the reported pIC50 of COc1cc2ncnc(-c3cn(C)nc3-c3ccccc3)c2cc1O[C@@H](C)C1COC1 [Example 22] with EGFR L858R (Homo sapiens (Human), UniProt P00533, L858R)?
8.77

Report measured pIC50 on EGFR L858R (Homo sapiens (Human), UniProt P00533, L858R); entry: Cc1nnc([C@@H](C)Oc2nc3c(-c4cn(C)nc4-c4ccccc4)ncnc3cc2OC2CC2)o1 (single isomer, unassigned) [Example 478]
7.98

Find the measured pIC50 of COc1cc2ncnc(-c3cn(C)nc3-c3ccccc3)c2cc1OC(=O)N1[C@@H](C)CN(C)C[C@@H]1C [Example 79] with EGFR L858R (Homo sapiens (Human), UniProt P00533, L858R) as test system.
8.19
